System: 873145-292-R-J1-PDC complex spheroid viability
Assay: Anticancer human tumor 873145-292-R-J1-PDC patient-derived renal clear cell carcinoma cell line growth inhibition [POLQ]
Conditions: second compound 0.1 µM; first compound 0.0316 µM; active compounds read low
assay_metric: viability, T/C (%)
Just the number in %, nothing appended.

Query: Give its viability, T/C value. Item: O=C(c1cc(Cc2n[nH]c(=O)c3ccccc23)ccc1F)N1CCN(C(=O)C2CC2)CC1 + Cc1cccc(N(C)C(=O)C2C(O)CCN2c2nc(C)cc(C(F)(F)F)c2C#N)c1
Result: 103

Query: Consider next the molecule COc1ccc([C@@H](O)c2cc(-c3ncnc4cc(N5CCOCC5)ccc34)c(F)cc2Cl)nn1 + Nc1ccc(C#CCN(C(=O)Cc2ncc(C(F)(F)F)cc2C(F)(F)F)c2ccc(F)cc2)nn1 in the same way.
Result: 92.8

Query: Also C=CC(=O)N1CCN(c2nc(=O)n(-c3c(C)ccnc3C(C)C)c3nc(-c4c(O)cccc4F)c(F)cc23)C(C)C1 (stereo not drawn) + Cc1cccc(N(C)C(=O)C2C(O)CCN2c2nc(C)cc(C(F)(F)F)c2C#N)c1 , if possible.
Result: 104

====

Test system: 873145-292-R-J1-PDC complex spheroid viability
Test: Anticancer human tumor 873145-292-R-J1-PDC cell line growth inhibition [POLQ];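 further: luminescence signal used as surrogate for viable cell content; spheroids exposed to compounds for 7 days before viability readout; 100% = DMSO vehicle control viability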
Details: second compound 3.16 µM; first compound 0.00316 µM; active compounds read low
assay_metric: viability, T/C (%)
Answer in %, number only, no unit symbol.

Query: Hello, I am looking for reported viability, T/C with 873145-292-R-J1-PDC complex spheroid viability for CCc1c2c(nc3ccc(O)cc13)-c1cc3c(c(=O)n1C2)COC(=O)[C@]3(O)CC + Cc1cccc(N(C)C(=O)C2C(O)CCN2c2nc(C)cc(C(F)(F)F)c2C#N)c1 . Could you help?
Result: 95

Query: Quick one: CC[C@@]1(O)C(=O)OCc2c1cc1n(c2=O)Cc2cc3c(CN(C)C)c(O)ccc3nc2-1 + Cc1cccc(N(C)C(=O)C2C(O)CCN2c2nc(C)cc(C(F)(F)F)c2C#N)c1
Result: 92.8

Query: And then CCc1c2c(nc3ccc(O)cc13)-c1cc3c(c(=O)n1C2)COC(=O)[C@]3(O)CC + Nc1ccc(C#CCN(C(=O)Cc2ncc(C(F)(F)F)cc2C(F)(F)F)c2ccc(F)cc2)nn1 , what is it?
Result: 94.5

Query: Request: CC[C@@]1(O)C(=O)OCc2c1cc1n(c2=O)Cc2cc3c(CN(C)C)c(O)ccc3nc2-1 + COC1C(OC(N)=O)C(O)C(Oc2ccc3c(O)c(NC(=O)c4ccc(O)c(CC=C(C)C)c4)c(=O)oc3c2C)OC1(C)C
Result: 92.7

Query: Subsequent entry: Cn1ncnc1[C@H]1c2n[nH]c(=O)c3cc(F)cc(c23)N[C@@H]1c1ccc(F)cc1 + COC1C(OC(N)=O)C(O)C(Oc2ccc3c(O)c(NC(=O)c4ccc(O)c(CC=C(C)C)c4)c(=O)oc3c2C)OC1(C)C
Result: 108

Query: Field entry: Cn1ncnc1[C@H]1c2n[nH]c(=O)c3cc(F)cc(c23)N[C@@H]1c1ccc(F)cc1 + Nc1ccc(C#CCN(C(=O)Cc2ncc(C(F)(F)F)cc2C(F)(F)F)c2ccc(F)cc2)nn1
Result: 97.2

Query: Try C=CCn1c(=O)c2cnc(Nc3ccc(N4CCN(C)CC4)cc3)nc2n1-c1cccc(C(C)(C)O)n1 + COC1C(OC(N)=O)C(O)C(Oc2ccc3c(O)c(NC(=O)c4ccc(O)c(CC=C(C)C)c4)c(=O)oc3c2C)OC1(C)C next.
Result: 100

Query: Quick one: CCc1c2c(nc3ccc(O)cc13)-c1cc3c(c(=O)n1C2)COC(=O)[C@]3(O)CC + COC1C(OC(N)=O)C(O)C(Oc2ccc3c(O)c(NC(=O)c4ccc(O)c(CC=C(C)C)c4)c(=O)oc3c2C)OC1(C)C
Result: 99.8

Query: Try the molecule COc1cccc(OCCCN)c1-c1cc(Nc2cnc(C#N)cn2)n[nH]1 + COC1C(OC(N)=O)C(O)C(Oc2ccc3c(O)c(NC(=O)c4ccc(O)c(CC=C(C)C)c4)c(=O)oc3c2C)OC1(C)C
Result: 108

Query: Queued: C=CCn1c(=O)c2cnc(Nc3ccc(N4CCN(C)CC4)cc3)nc2n1-c1cccc(C(C)(C)O)n1 + Cc1cccc(N(C)C(=O)C2C(O)CCN2c2nc(C)cc(C(F)(F)F)c2C#N)c1
Result: 97.7

====

Tested on: 873145-292-R-J1-PDC complex spheroid viability
Test: Anticancer human tumor 873145-292-R-J1-PDC cell line growth inhibition [POLQ];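 further: luminescence signal used as surrogate for viable cell content; spheroids exposed to compounds for 7 days before viability readout; 100% = DMSO vehicle control viability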
Details: second compound 10 µM; first compound 0.316 µM; active compounds read low
Would you kindly list viability, T/C for each of these compounds?
Response body: numeric value in %, unit text excluded.

Query: Any idea what viability, T/C came out for C=CCn1c(=O)c2cnc(Nc3ccc(N4CCN(C)CC4)cc3)nc2n1-c1cccc(C(C)(C)O)n1 + Cc1cccc(N(C)C(=O)C2C(O)CCN2c2nc(C)cc(C(F)(F)F)c2C#N)c1 on 873145-292-R-J1-PDC complex spheroid viability?
Result: 81.4

Query: Item: CC1COCCN1c1cc(C2(O)CC3CCC(C2)O3)c2cnn(-c3ccn[nH]3)c2n1 (stereo not given) + Cc1cccc(N(C)C(=O)C2C(O)CCN2c2nc(C)cc(C(F)(F)F)c2C#N)c1
Result: 49

Query: One more compound: CCCS(=O)(=O)Nc1ccc(F)c(C(=O)c2c[nH]c3ncc(-c4ccc(Cl)cc4)cc23)c1F + Cc1cccc(N(C)C(=O)C2C(O)CCN2c2nc(C)cc(C(F)(F)F)c2C#N)c1
Result: 96.1

Query: And then COc1cccc(OCCCN)c1-c1cc(Nc2cnc(C#N)cn2)n[nH]1 + COC1C(OC(N)=O)C(O)C(Oc2ccc3c(O)c(NC(=O)c4ccc(O)c(CC=C(C)C)c4)c(=O)oc3c2C)OC1(C)C , what is it?
Result: 66.1

Query: Same lookup for CNCc1ccc(-c2[nH]c3cc(F)cc4c3c2CCNC4=O)cc1 + COC1C(OC(N)=O)C(O)C(Oc2ccc3c(O)c(NC(=O)c4ccc(O)c(CC=C(C)C)c4)c(=O)oc3c2C)OC1(C)C , please.
Result: 92.4

====

System: 873145-292-R-J1-PDC complex spheroid viability
Test: Anticancer human tumor 873145-292-R-J1-PDC cell line growth inhibition [POLQ];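 further: luminescence signal used as surrogate for viable cell content; spheroids exposed to compounds for 7 days before viability readout; 100% = DMSO vehicle control viability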
Conditions: second compound 3.16 µM; first compound 3.16 µM; active compounds read low
Answer each item with its documented viability, T/C.
Unit % implied. Number only.

Query: Form field: reported viability, T/C of COc1cc(C2c3cc4c(cc3C(OC3OC5COC(C)OC5C(O)C3O)C3COC(=O)C23)OCO4)cc(OC)c1O (stereo unspecified) + Nc1ccc(C#CCN(C(=O)Cc2ncc(C(F)(F)F)cc2C(F)(F)F)c2ccc(F)cc2)nn1
Result: 76.3

Query: Repeat with C=CC(=O)N1CCN(c2nc(=O)n(-c3c(C)ccnc3C(C)C)c3nc(-c4c(O)cccc4F)c(F)cc23)C(C)C1 (stereo unspecified) + Cc1cccc(N(C)C(=O)C2C(O)CCN2c2nc(C)cc(C(F)(F)F)c2C#N)c1
Result: 136

Query: Request: C=CC(=O)N1CCN(c2nc(=O)n(-c3c(C)ccnc3C(C)C)c3nc(-c4c(O)cccc4F)c(F)cc23)C(C)C1 (stereo unspecified) + COC1C(OC(N)=O)C(O)C(Oc2ccc3c(O)c(NC(=O)c4ccc(O)c(CC=C(C)C)c4)c(=O)oc3c2C)OC1(C)C
Result: 126

Query: And for COc1cccc2c1C(=O)c1c(O)c3c(c(O)c1C2=O)CC(O)(C(=O)CO)CC3OC1CC(N)C(O)C(C)O1 (stereo unspecified) + COC1C(OC(N)=O)C(O)C(Oc2ccc3c(O)c(NC(=O)c4ccc(O)c(CC=C(C)C)c4)c(=O)oc3c2C)OC1(C)C ?
Result: 5.62

Query: What do we get for CNCc1ccc(-c2[nH]c3cc(F)cc4c3c2CCNC4=O)cc1 + Cc1cccc(N(C)C(=O)C2C(O)CCN2c2nc(C)cc(C(F)(F)F)c2C#N)c1 ?
Result: 101

Query: Could you do the same for CC1COCCN1c1cc(C2(S(C)(=N)=O)CC2)nc(-c2ccnc3[nH]ccc23)n1 (stereo unspecified) + Nc1ccc(C#CCN(C(=O)Cc2ncc(C(F)(F)F)cc2C(F)(F)F)c2ccc(F)cc2)nn1 , please?
Result: 82

Query: Also need CCc1cc2c(N3CCc4c(cc(Cn5ccnc5)cc4-c4cn(C)nc4C(F)(F)F)C3=O)ccnc2c(OC)n1 + Cc1cccc(N(C)C(=O)C2C(O)CCN2c2nc(C)cc(C(F)(F)F)c2C#N)c1 , thanks.
Result: 80.1

Query: Lookup O=c1[nH]cc(F)c(=O)[nH]1 + Nc1ccc(C#CCN(C(=O)Cc2ncc(C(F)(F)F)cc2C(F)(F)F)c2ccc(F)cc2)nn1
Result: 105

Query: Likewise for O=c1[nH]cc(F)c(=O)[nH]1 + Cc1cccc(N(C)C(=O)C2C(O)CCN2c2nc(C)cc(C(F)(F)F)c2C#N)c1 ?
Result: 101

Query: Moving on to O=C(Nc1ccc(O)c(NS(=O)(=O)c2ccc(F)cc2)c1)c1ccc(-c2ccccc2)cc1 + Nc1ccc(C#CCN(C(=O)Cc2ncc(C(F)(F)F)cc2C(F)(F)F)c2ccc(F)cc2)nn1
Result: 98.7

Query: Proceed to Nc1ccn(C2OC(CO)C(O)C2(F)F)c(=O)n1 (stereo unspecified) + Nc1ccc(C#CCN(C(=O)Cc2ncc(C(F)(F)F)cc2C(F)(F)F)c2ccc(F)cc2)nn1
Result: 54.5

Cited source: PubChem BioAssay AID1963834
